Please go through the items and note down their normalized growth.
# ASSAY DETAILS: chemical genetic growth profiling, strain panel (AID 1159580);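 also: tested at 20 µM; growth read once vehicle control cultures reached saturation at 30 °C; 1 = growth at the plate median or of vehicle wells; lower values mean less growth of the strain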
# MEASUREMENT PARAMETERS: S. cerevisiae deletion strains, growth OD, locus YEL037C, strain rad23, active compounds read low
Among all 5,500 compounds or so, about 2,000 (36%) were called active. Inconclusive results (about 18%) are left out. The list shows a part of the results.

Item under review: CNC(C)C(O)c1ccccc1 (configuration not stated) . Reported normalized growth?
1.01 (inactive)

Item under review: COc1ccc2c(c1)CCC1C2CCC2(C)C1C[C@@H](O)C2O (some centres not stated) . Reported normalized growth?
1 (inactive)

Item under review: OC1CC2CCCC(C1)N2Cc1ccccc1 (configuration not stated) . Reported normalized growth?
1 (inactive)

Item under review: CC(C)c1c(O)ccc2c1CCC1[C@@](C)(C=O)CCC[C@]21C (some centres not stated) . Reported normalized growth?
1 (inactive)

Item under review: CC(C)c1c(O)ccc2c1CCC1[C@@](C)(CO)CCC[C@]21C (some centres not stated) . Reported normalized growth?
1.02 (inactive)

Item under review: CCC1OC(=O)[C@H](C)C(=O)[C@H](C)[C@@H](OC2O[C@H](C)C[C@H](N(C)C)[C@H]2O)[C@](C)(OC)C2(CCCn3cnc(-c4cccnc4)c3)C[C@@H](C)C(=O)[C@H](C)[C@H]3N(C2)C(=O)O[C@]13C (some centres not stated) . Reported normalized growth?
0.975 (inactive)

Item under review: C[C@@H]([C@H](O)c1ccccc1)N(C)C . Reported normalized growth?
1.01 (inactive)

Item under review: CC(=O)OC(C)C[N+](C)(C)C (configuration not stated) . Reported normalized growth?
1 (inactive)

Item under review: CC(=O)Oc1ccc2c(c1C(C)C)CCC1C(C)(C)CCC[C@]21C (some centres not stated) . Reported normalized growth?
1.01 (inactive)

Item under review: CC(C)(C)NCC(O)c1cc(Cl)c(N)c(Cl)c1 (configuration not stated) . Reported normalized growth?
0.998 (inactive)

Item under review: NC(=O)c1ncn([C@@H]2O[C@H](CO)[C@@H](O)[C@H]2O)n1 . Reported normalized growth?
0.993 (inactive)

Item under review: NC(N)=NC(=O)c1nc(Cl)c(N)nc1N . Reported normalized growth?
1.02 (inactive)

Item under review: NC(=O)NCCCC(N)C(=O)O (configuration not stated) . Reported normalized growth?
0.995 (inactive)

Item under review: CN1C[C@H](C(=O)N[C@]2(C)O[C@@]3(O)[C@@H]4CCCN4C(=O)[C@H](Cc4ccccc4)N3C2=O)C[C@@H]2c3cccc4[nH]cc(c34)C[C@H]21 . Reported normalized growth?
0.987 (inactive)

Item under review: CC(=O)O[C@]1(C(C)=O)CCC2C3C=C(Cl)C4=CC(=O)[C@@H]5C[C@@H]5[C@]4(C)C3CC[C@@]21C (some centres not stated) . Reported normalized growth?
1.02 (inactive)

Item under review: COc1ccc(Cl)cc1C(=O)NCCc1ccc(S(=O)(=O)NC(=O)NC2CCCCC2)cc1 . Reported normalized growth?
1 (inactive)

Item under review: CCOCN(C(=O)CCl)c1c(C)cccc1CC . Reported normalized growth?
0.994 (inactive)

###

# ASSAY DETAILS: chemical genetic growth profiling, strain panel (AID 1159580);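 also: tested at 20 µM; growth read once vehicle control cultures reached saturation at 30 °C; 1 = growth at the plate median or of vehicle wells; lower values mean less growth of the strain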
# MEASUREMENT PARAMETERS: S. cerevisiae deletion strains, growth OD, locus YOR001W, strain rrp6, active compounds read low
Out of some 5,500 compounds screened, about 2,000 (36%) were called active. Inconclusive results (about 18%) are left out. The list shows a part of the results.
Please go through the items and note down their normalized growth.
I'd appreciate a reply containing only the number, no unit.

Item under review: C[C@]12CCC3c4ccc(OS(=O)(=O)O)cc4CCC3C1CC[C@H]2O (some centres undefined) . Reported normalized growth?
1.01

Item under review: CC(C)c1c(O)ccc2c1CCC1[C@@](C)(CO)CCC[C@]21C (some centres undefined) . Reported normalized growth?
1.02

Item under review: CC1CCC2(OC1)OC1CC3C4CC[C@H]5C[C@@H](O)CC[C@]5(C)C4CC(=O)[C@]3(C)C1C2C (some centres undefined) . Reported normalized growth?
0.983

Item under review: Cc1[nH]ccc2c1[nH]c1cc(=O)ccc12 . Reported normalized growth?
0.999

Item under review: C[C@]12CCC3c4ccc(O)cc4CCC3C1C[C@@H](O)[C@@H]2O (some centres undefined) . Reported normalized growth?
0.998

Item under review: O=C(O)C1=C[C@@H](O)[C@@H](O)[C@H](O)C1 . Reported normalized growth?
0.993

Item under review: OC1CC2CCCC(C1)N2Cc1ccccc1 (centres undefined) . Reported normalized growth?
1.01

Item under review: CCN[C@@H]1C[C@H](N)[C@@H](O[C@H]2OC(CN)=CC[C@H]2N)[C@H](O)[C@H]1OC1OC[C@](C)(O)[C@H](NC)[C@H]1O (some centres undefined) . Reported normalized growth?
0.982

Item under review: CCCC(C)(COC(N)=O)COC(=O)NC(C)C (centres undefined) . Reported normalized growth?
1.02

Item under review: OCC(O)C(O)C(O)C(O)C(O)CO (centres undefined) . Reported normalized growth?
1

Item under review: C[C@@H]1CC[C@@]2(OC1)O[C@H]1CC3C4CC[C@H]5C[C@@H](O)CC[C@]5(C)C4CC[C@]3(C)[C@H]1[C@@H]2C (some centres undefined) . Reported normalized growth?
0.999

Item under review: CCCCCc1c2c(cc(O)c1C(=O)O)OC(=O)c1c(cc(OC)cc1C(=O)CCCC)O2 . Reported normalized growth?
1

Item under review: COC(=O)c1c(C)cc(OC)cc1O . Reported normalized growth?
0.985

Item under review: CCC(N)C(O)c1ccc(O)c(O)c1 (centres undefined) . Reported normalized growth?
1

Item under review: CC(=O)Oc1ccc2c(c1C(C)C)CCC1C(C)(C)CCC[C@]21C (some centres undefined) . Reported normalized growth?
1.02

Item under review: CC(C)c1c(O)c(-c2cc3c(c(C(C)C)c2O)CCC2C(C)(C)CCC[C@]32C)cc2c1CCC1C(C)(C)CCC[C@]21C (some centres undefined) . Reported normalized growth?
1.02

Item under review: CCCCC1C(=O)N(c2ccccc2)N(c2ccc(O)cc2)C1=O (centres undefined) . Reported normalized growth?
0.989

Item under review: CC/C(=C(/CC)c1ccc(O)cc1)c1ccc(O)cc1 . Reported normalized growth?
0.997

Item under review: CCCCCCC(C)OC(=O)COc1ccc(Cl)cc1Cl (centres undefined) . Reported normalized growth?
0.995

###

# ASSAY DETAILS: chemical genetic growth profiling, strain panel (AID 1159580);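 also: tested at 20 µM; growth read once vehicle control cultures reached saturation at 30 °C; 1 = growth at the plate median or of vehicle wells; lower values mean less growth of the strain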
# MEASUREMENT PARAMETERS: S. cerevisiae deletion strains, growth OD, locus YER002W, strain NOP16, active compounds read low
The whole screen tested about 5,500 compounds, of which about 2,000 (36%) were called active. Another 18% or so got no clear call; they are omitted. The list shows a part of the results.
RESULT TYPE: normalized growth
I'd appreciate a reply containing only the number, no unit.

Item under review: N#C/C(=C\c1ccc(O)c(O)c1)C(=O)NCCc1ccccc1 . Reported normalized growth?
0.995

Item under review: COc1cc(=O)n(C)c2c(OCC(O)C(C)(C)O)cccc12 (stereo not given) . Reported normalized growth?
0.999

Item under review: CCCCCCCCCC(=O)NC(CN1CCOCC1)[C@H](O)c1ccccc1 (stereo not given in full) . Reported normalized growth?
0.963

Item under review: CC[C@H](NC(=O)c1c(C)c(-c2ccccc2)nc2ccccc12)c1ccccc1 . Reported normalized growth?
1.02

Item under review: N#CC(C#N)=Cc1ccc(O)c(O)c1 . Reported normalized growth?
0.992

###

# ASSAY DETAILS: chemical genetic growth profiling, strain panel (AID 1159580);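 also: tested at 20 µM; growth read once vehicle control cultures reached saturation at 30 °C; 1 = growth at the plate median or of vehicle wells; lower values mean less growth of the strain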
# MEASUREMENT PARAMETERS: S. cerevisiae deletion strains, growth OD, locus YMR078C, strain ctf18
The campaign covered roughly 5,500 compounds. About 2,000 (36%) were called active. Not shown: some 18% with an inconclusive outcome. No stated cut-off is given here; in the data, active means normalized growth mostly below about 0.91 (no sharp cut-off); inconclusive means no clear call, values can overlap the other calls; inactive means mostly above about 0.92. Some of the results follow.
Outcome (select one): true (active), false (inactive)

Which outcome was assigned to NC(=O)NCCCC(N)C(=O)O (stereo unspecified) in this test?
false

Which outcome was assigned to O=C(O[C@@H]1Cc2c(O)cc(O)cc2O[C@@H]1c1cc(O)c(=O)c2c(O)c(O)cc([C@H]3Oc4cc(O)cc(O)c4C[C@H]3O)c2c1)c1cc(O)c(O)c(O)c1 in this test?
false

Which outcome was assigned to O=C(O[C@@H]1Cc2c(O)cc(O)cc2O[C@@H]1c1cc(O)c(=O)c2c(O)c(O)cc([C@H]3Oc4cc(O)cc(O)c4C[C@H]3OC(=O)c3cc(O)c(O)c(O)c3)c2c1)c1cc(O)c(O)c(O)c1 in this test?
false

Which outcome was assigned to CC(=O)O[C@@H]1CC2C(C)(C)C(=O)C=C[C@]2(C)C2CC[C@@]3(C)[C@H](c4ccoc4)OC(=O)[C@H]4O[C@]43[C@@]21C (stereo partly specified) in this test?
false

Which outcome was assigned to CCCC(C)(COC(N)=O)COC(=O)NC(C)C (stereo unspecified) in this test?
false

Which outcome was assigned to COc1c2ccoc2cc2oc(=O)ccc12 in this test?
true

Which outcome was assigned to COC(=O)C[C@H]1C(C)(C)C2(Cl)O[C@@]34CC2C(=O)[C@]1(C)C3CC[C@]1(C)C4=CC(=O)O[C@H]1c1ccoc1 (stereo partly specified) in this test?
false

Which outcome was assigned to CCOCN(C(=O)CCl)c1c(C)cccc1CC in this test?
false

Which outcome was assigned to Cc1[nH]ccc2c1[nH]c1cc(=O)ccc12 in this test?
false

Which outcome was assigned to CC1(C)C2CC(=O)[C@]3(C)C(CC[C@@]4(C)[C@H](c5ccoc5)OC(=O)C5OC543)[C@@]2(C)[C@@H](O)C[C@H]1O (stereo partly specified) in this test?
false

Which outcome was assigned to CC(=O)OCC1=C(C(=O)O)N2C(=O)[C@@H](NC(=O)Cc3cccs3)[C@H]2SC1 in this test?
false
